Taken from ChEMBL document CHEMBL1777735.

# assay-remarks: 1-Octanol-water distribution coefficient, log D of the compound at pH 7.4 by shake-flask method
# Type: physicochemical
reported-endpoint: logD

smiles-string: CN1C(C(=O)Nc2ccccn2)=C(O)c2ccccc2S1(=O)=O
reported-endpoint: logD
value: -0.3

I. Cc1ccc(C(=O)c2ccc(CC(=O)O)n2C)cc1
II. CCOC(=O)[C@H](CCc1ccccc1)N[C@@H](C)C(=O)N1CCC[C@H]1C(=O)O
III. CN(C)S(=O)(=O)NC(=O)CCCc1c(-c2ccc(F)cc2)[nH]c2ccc(C#N)cc12
Q. Reorder: logD, max to min. The labels, placed in the requested order, form the answer.
A. III, I, II

----------
# assay-remarks: Plasma protein binding in human
# Assay type: ADME, cell-free
# condition-label: read-out: PPB (converted)
reported-endpoint: fraction unbound

a. CCOC(=O)[C@H](CCc1ccccc1)N[C@@H](C)C(=O)N1CCC[C@H]1C(=O)O
b. CCOC(=O)[C@H](CCc1ccccc1)N[C@H]1CCc2ccccc2N(CC(=O)O)C1=O
c. CN1C(C(=O)Nc2ccccn2)=C(O)c2ccccc2S1(=O)=O
d. Cc1nnc(NS(=O)(=O)c2ccc(N)cc2)s1
Q. Rank the listed compounds according to fraction unbound, from the largest value downward. The labels, placed in the requested order, form the answer.
A. a, d, b, c
(a: 0.5, d: 0.065, b: 0.041, c: 0.007)

----------
# assay-remarks: 1-Octanol-sodium citrate buffer distribution coefficient, log D of the compound at pH 5.5 by shake-flask method
# Assay type: physicochemical
# condition-label: 1-octanol/sodium citrate buffer, read-out: logD
reported-endpoint: logD

1. Cc1nnc(NS(=O)(=O)c2ccc(N)cc2)s1 [SULFAMETHIZOLE]
2. CCOc1cc(CC(=O)N[C@@H](CC(C)C)c2ccccc2N2CCCCC2)ccc1C(=O)O [REPAGLINIDE]
Q. Which record would sort first by descending logD, 1 or 2 ? Please reply using the label of the selected record.
A. 2
(2: 3.2, 1: 0)

P. O=C(O)CCc1nc(-c2ccccc2)c(-c2ccccc2)o1 [OXAPROZIN]
Q. CCCCNc1cc(C(=O)O)cc(S(N)(=O)=O)c1Oc1ccccc1 [BUMETANIDE]
Q. Which record would sort first by descending logD, P or Q ? Please reply using the label of the selected record.
A. P

1. O=C(O)CCn1c2c(c3ccccc31)C[C@H](NS(=O)(=O)c1ccc(F)cc1)CC2 [RAMATROBAN]
2. Cc1cc(SCc2sc(-c3ccc(C(F)(F)F)cc3)nc2C)ccc1OCC(=O)O [GW501516]
3. CN1C(C(=O)Nc2ccccn2)=C(O)c2ccccc2S1(=O)=O [PIROXICAM]
Q. Reorder: logD, max to min. The labels, placed in the requested order, form the answer.
A. 2, 1, 3

A. COc1ccc(Cl)cc1C(=O)NCCc1ccc(S(=O)(=O)NC(=O)NC2CCCCC2)cc1 [GLYBURIDE]
B. CCCCc1nc(Cl)c(CO)n1Cc1ccc(-c2ccccc2-c2nn[nH]n2)cc1 [LOSARTAN]
Q. Which record would sort first by descending logD, A or B ? Please reply using the label of the selected record.
A. A

----------
# assay-remarks: 1-Octanol-sodium citrate buffer distribution coefficient, log D of the compound at pH 5.5 by shake-flask method
# Type: physicochemical
# condition-label: 1-octanol/sodium citrate buffer, read-out: logD
reported-endpoint: logD
Please give the numeric answer without any surrounding text.

For O=C(c1ccccc1)c1ccc2n1CCC2C(=O)O (stereo not drawn) [KETOROLAC] the compound record lists logD as 0.6

For O=C(O)CCCc1ccc(N(CCCl)CCCl)cc1 [CHLORAMBUCIL] the compound record lists logD as 3.2

For COc1ccc2c(c1)c(CC(=O)O)c(C)n2C(=O)c1ccc(Cl)cc1 [INDOMETHACIN] the compound record lists logD as 2.7
